PARAMETER_MEASURED: melting point

## Task Using known records, supply melting point for COC[C@@H]1CN(CCN2CCN(C(=O)c3cc(C(F)(F)F)cc(C(F)(F)F)c3)[C@H](Cc3ccc(C(C)C)c(O)c3)C2)CCO1.Cl.Cl
## Result 218 to 228 °C

----------
Known melting point of a selection of compounds

Below, each entry is followed by its recorded melting point result.
COc1cc(C(=O)N2CCN(Cc3cccnc3)C[C@H]2Cc2ccc(F)cc2)cc(C(F)(F)F)c1.Cl.Cl
81.4 to 84.3 °C
COC[C@@H]1CN(CCN2CCN(C(=O)c3cc(SC)cc(C(F)(F)F)c3)[C@H](Cc3ccc(Cl)cc3)C2)CCO1.Cl.Cl
140 to 146 °C
Cc1ccc(C[C@@H]2CN(Cc3ccc4ncccc4c3)CCN2C(=O)c2cc(C(F)(F)F)cc(C(F)(F)F)c2)cc1O.Cl.Cl
170 to 200 °C
COC[C@@H]1CN(CCN2CCN(C(=O)c3cc(C(F)(F)F)cc(S(N)(=O)=O)c3)[C@H](Cc3ccc(C)c(O)c3)C2)CCO1.Cl.Cl
166 to 206 °C
Cc1ccc(C[C@@H]2CN(CCN3[C@@H](C)COC[C@@H]3C)CCN2C(=O)c2cc(C(F)(F)F)cc(C(F)(F)F)c2)cc1O.Cl.Cl
240 to 250 °C

## Task Could you please provide reported melting point for COc1cc(C(=O)N2CCN(CCN3C[C@@H](C)O[C@@H](C)C3)C[C@H]2Cc2ccc(Cl)c(O)c2)cc(C(F)(F)F)c1.Cl.Cl ? Thanks!
## Result 177 to 182 °C
